Assay: Inhibition of 20s constitutive proteasome beta1 caspase-like activity in human erythrocytes using Z-Leu-Leu-Glu-AMC as substrate after 10 mins by fluorescence assay
pKi: −log10 of the molar value.
Observation Type: pKi

In [3]: df
Out[3]:
                              line_notation  recorded_value
0  O=C1/C(=C/c2ccc(Oc3ccccc3)cc2)NC(=S)N1c1cccc2ccccc12            5.02

====

Below is a list of entries, each paired with its recorded Ki value.
Experiment: Inhibition of 20s immunoproteasome beta2 trypsin-like activity in human spleen using Boc-Leu-Arg-Arg-AMC as substrate after 10 mins by fluorescence assay
Observation Type: Ki (µM)

>>> df
                              line_notation  observation_type  recorded_value
0   CSc1ccc(/C=C2\NC(=S)N(c3ccccc3)C2=O)cc1                Ki            4.38
1  COc1cc(/C=C2\NC(=S)N(c3ccccc3)C2=O)ccc1O                Ki            6.71
2  O=C1/C(=C/c2ccc(Oc3ccccc3)cc2)NC(=S)N1c1cccc2ccccc12                Ki            5.57

====

Experiment: Inhibition of 20s constitutive proteasome beta2 trypsin-like activity in human erythrocytes using Boc-Leu-Arg-Arg-AMC as substrate after 10 mins by fluorescence assay
pKi: −log10 of the molar value.
Observation Type: pKi

>>> df
                             line_notation  recorded_value
0  CSc1ccc(/C=C2\NC(=S)N(c3ccccc3)C2=O)cc1            4.70
